Source listed as patent US20240409585A1.

- system: PE-labeled human PD-L1-Ig binding to Jurkat cell line over-expressing human PD-1 (Jurkat-PD-1) (Homo sapiens, UniProt Q15116)
- Construct: expressed in transfected cells; host or cells: Jurkat
- Sequence (Q15116 25-288): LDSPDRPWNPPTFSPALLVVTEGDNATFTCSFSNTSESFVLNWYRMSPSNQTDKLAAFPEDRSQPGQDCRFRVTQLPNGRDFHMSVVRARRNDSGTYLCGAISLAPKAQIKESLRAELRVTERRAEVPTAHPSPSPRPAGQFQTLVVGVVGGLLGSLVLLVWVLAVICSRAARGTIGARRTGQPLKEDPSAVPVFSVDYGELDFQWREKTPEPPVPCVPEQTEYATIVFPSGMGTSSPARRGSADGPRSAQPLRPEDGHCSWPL
- assay-summary: Jurkat-PD-1 Cell Binding High-Content Screening Assay (CBA): Method 1
- applied-conditions: Jurkat-hPD-1 cells, PE-labeled PD-L1-Ig 20 nM final; read-out: Jurkat HPDL1 PD1 IC50 (uM) (Method 1)
Bridge positions count the residues as written; N and C are the ends. Square brackets hold non-standard residues; d marks the D form. Peptide text beside a SMILES is read from it. Phe(4-COOH) = N[C@@H](Cc1ccc(C(=O)O)cc1)C(=O)O; Phe(4-CH2NH2) = NCc1ccc(C[C@H](N)C(=O)O)cc1; Bip = N[C@@H](Cc1ccc(-c2ccccc2)cc1)C(=O)O; 4Pal = N[C@@H](Cc1ccncc1)C(=O)O; Cit = NC(=O)NCCC[C@H](N)C(=O)O; dNle = CCCC[C@@H](N)C(=O)O; NMeA = CN[C@@H](C)C(=O)O; Orn = NCCC[C@H](N)C(=O)O; Dab = NCC[C@H](N)C(=O)O; Dap = NC[C@H](N)C(=O)O
property: log10 IC50 (log10 of the value in µM)
The figures below represent log10 of IC50, where IC50 is stated in µM.

Examples with answers:
CCCC[C@H]1NC(=O)[C@H](C)N(C)C(=O)[C@H](CCCNC(=N)N)NC(=O)[C@H](Cc2ccc(-c3ccccc3)cc2)NC(=O)[C@H](C(C)C)NC(=O)[C@H](Cc2c[nH]c3ccccc23)NC(=O)[C@H](CC(=O)O)NC(=O)[C@H](Cc2ccc(O)cc2)NC(=O)[C@H](Cc2ccccc2)NC(=O)CSC[C@@H](C(=O)N[C@@H](C)C(N)=O)NC(=O)[C@H]([C@@H](C)O)NC(=O)[C@H](C(C)C)NC(=O)[C@H](CC(C)C)NC(=O)[C@H](CCCNC(=N)N)NC1=O [Compound 1063] ({CH2CO}-FYDWV[Bip]R[NMeA][dNle]RLVTCA-NH2; thioether N-14) | -1.22
CC(C)C[C@@H]1NC(=O)[C@H](Cc2c[nH]c3ccccc23)NC(=O)[C@H](CC(=O)O)NC(=O)[C@H](Cc2ccc(C(=O)O)cc2)NC(=O)[C@H](Cc2ccccc2)NC(=O)CSC[C@@H](C(=O)NCC(N)=O)NC(=O)[C@H](CO)NC(=O)[C@H](C(C)C)NC(=O)[C@H](CC(C)C)NC(=O)[C@H](CC(N)=O)NC(=O)[C@@H](CC(C)C)NC(=O)[C@H](C)N(C)C(=O)[C@H](C(C)C)NC(=O)[C@H](Cc2ccc(-c3ccccc3)cc2)NC1=O [Compound 1528] ({CH2CO}-F[Phe(4-COOH)]DWL[Bip]V[NMeA][dL]NLVSCG-NH2; thioether N-14) | -2.00
CC(C)C[C@@H]1NC(=O)[C@H](CCCCN)NC(=O)[C@@H](CC(C)C)NC(=O)[C@H](C)N(C)C(=O)[C@H](Cc2cnc[nH]2)NC(=O)[C@H](Cc2ccc(-c3ccccc3)cc2)NC(=O)[C@H](C(C)C)NC(=O)[C@H](Cc2c[nH]c3ccccc23)NC(=O)[C@H](CC(=O)O)NC(=O)[C@H](Cc2ccc(O)cc2)NC(=O)[C@H](CC(N)=O)NC(=O)CSC[C@@H](C(=O)NCC(N)=O)NC(=O)[C@H](CO)NC(=O)[C@H](C(C)C)NC1=O [Compound 1483] ({CH2CO}-NYDWV[Bip]H[NMeA][dL]KLVSCG-NH2; thioether N-14) | -1.22
CC(C)C[C@@H]1NC(=O)[C@H](CCN)NC(=O)[C@@H](CC(C)C)NC(=O)[C@H](C)N(C)C(=O)[C@H](CCC(=O)O)NC(=O)[C@H](Cc2ccc(-c3ccccc3)cc2)NC(=O)[C@H](C(C)C)NC(=O)[C@H](Cc2c[nH]c3ccccc23)NC(=O)[C@H](CC(=O)O)NC(=O)[C@H](Cc2ccncc2)NC(=O)[C@H](CN)NC(=O)CSC[C@@H](C(=O)N[C@@H](C)C(N)=O)NC(=O)[C@H](CO)NC(=O)[C@H](C(C)C)NC1=O [Compound 1576] ({CH2CO}-[Dap][4Pal]DWV[Bip]E[NMeA][dL][Dab]LVSCA-NH2; thioether N-14) | -0.96
CC(C)C[C@@H]1NC(=O)[C@H](Cc2c[nH]c3ccccc23)NC(=O)[C@H](CC(=O)O)NC(=O)[C@H](Cc2ccc(CN)cc2)NC(=O)[C@H](Cc2ccccc2)NC(=O)CSC[C@@H](C(=O)N[C@@H](C)C(N)=O)NC(=O)[C@H](CO)NC(=O)[C@H](C(C)C)NC(=O)[C@H](CC(C)C)NC(=O)[C@H](CC(N)=O)NC(=O)[C@@H](C)NC(=O)[C@H](C)N(C)C(=O)[C@H](C(C)C)NC(=O)[C@H](Cc2ccc(-c3ccccc3)cc2)NC1=O [Compound 1750] ({CH2CO}-F[Phe(4-CH2NH2)]DWL[Bip]V[NMeA][dA]NLVSCA-NH2; thioether N-14) | -1.70
CC(C)C[C@@H]1NC(=O)[C@H](CCCCN)NC(=O)[C@@H](CC(C)C)NC(=O)[C@H](C)N(C)C(=O)[C@H](Cc2cnc[nH]2)NC(=O)[C@H](Cc2ccc(-c3ccccc3)cc2)NC(=O)[C@H](C(C)C)NC(=O)[C@H](Cc2c[nH]c3ccccc23)NC(=O)[C@H](CC(=O)O)NC(=O)[C@H](Cc2ccc(O)cc2)NC(=O)[C@H](CC(N)=O)NC(=O)CSC[C@@H](C(=O)N[C@@H](C)C(N)=O)NC(=O)[C@H]([C@@H](C)O)NC(=O)[C@H](C(C)C)NC1=O [Compound 1481] ({CH2CO}-NYDWV[Bip]H[NMeA][dL]KLVTCA-NH2; thioether N-14) | -0.92
CC(C)C[C@@H]1NC(=O)[C@H](CCCN)NC(=O)[C@@H](CC(C)C)NC(=O)[C@H](C)N(C)C(=O)[C@H](CCCN)NC(=O)[C@H](Cc2ccc(-c3ccccc3)cc2)NC(=O)[C@H](C(C)C)NC(=O)[C@H](Cc2c[nH]c3ccccc23)NC(=O)[C@H](CC(=O)O)NC(=O)[C@H](Cc2ccc(O)cc2)NC(=O)[C@H](CC(N)=O)NC(=O)CSC[C@@H](C(=O)N[C@@H](C)C(N)=O)NC(=O)[C@H](CO)NC(=O)[C@H](C(C)C)NC1=O [Compound 1251] ({CH2CO}-NYDWV[Bip][Orn][NMeA][dL][Orn]LVSCA-NH2; thioether N-14) | -1.40

Could you now consider this next compound?
Request: Consider the compound CC(C)C[C@@H]1NC(=O)[C@H](CCN)NC(=O)[C@@H](CC(C)C)NC(=O)[C@H](C)N(C)C(=O)[C@H](CCCNC(N)=O)NC(=O)[C@H](Cc2ccc(-c3ccccc3)cc2)NC(=O)[C@H](C(C)C)NC(=O)[C@H](Cc2c[nH]c3ccccc23)NC(=O)[C@H](CC(=O)O)NC(=O)[C@H](Cc2ccc(O)cc2)NC(=O)[C@H](CC(N)=O)NC(=O)CSC[C@@H](C(=O)N[C@@H](C)C(N)=O)NC(=O)[C@H](CO)NC(=O)[C@H](C(C)C)NC1=O [Compound 1237] ({CH2CO}-NYDWV[Bip][Cit][NMeA][dL][Dab]LVSCA-NH2; thioether N-14) and give its measured log10 IC50.
Result: -1.52
